target: Gag-Pol polyprotein [588-1027] (Human immunodeficiency virus type 1 group M subtype B (isolate HXB2)); construct: 588-1027; test: Reverse Transcriptase Assay; settings: pH 7.4; 37 °C
RESULT_TYPE: EC50

Query: Fill blank: measured EC50 of the molecule "Cc1[nH]nc(OCC(=O)Nc2ccc(C#CC(C)(C)CO)cc2Cl)c1-c1ccc(C(C)(C)C)cc1Cl" is ____.
Result: > 5 µM

###

biological target: Gag-Pol polyprotein [588-1027,K691N,Y769C]/[588-1147,K691N,Y769C] (Human immunodeficiency virus 1, UniProt P04585, K691N/Y769C); construct: 588-1027; 588-1147; test: Reverse Transcriptase Assay
RESULT_TYPE: IC50

Known IC50 results, listed for orientation:
{"columns": ["MOLECULE", "IC50"],
 "data": [
  ["Cc1ccc(-n2ncc(C)c2SCC(=O)Nc2ccc(-c3ccc(CC(=O)O)cc3)cc2Cl)c(Cl)c1", "> 10 µM"],
  ["Cc1ccc(-n2nnnc2SCC(=O)Nc2ccc(-c3ccc(CC(=O)O)cc3)cc2Cl)c(Cl)c1", "0.048 µM"]
]}

Please look at the following molecule next.
Query: Request the reported IC50 associated with "Cc1ccc(-n2cc(C)nc2SCC(=O)Nc2ccccc2Cl)c(Cl)c1"
Result: > 10 µM
